Values from ChEMBL document CHEMBL1135468

pKi: −log10 of the molar value. *1 amine or outer side, *2 acyl side, *3 side chain or, on linkers, in order; H or OH if unused. Where a SMILES comes first, the peptide text is derived from it. Bridges are numbered along the chain shown (N, C = ends). [ ]: non-standard residue; d: D form. The star is where a group is joined. 6FAM = O=C1OC2(c3ccc(O)cc3Oc3cc(O)ccc32)c2cc(C(=O)*)ccc21; X1 = O=C([C@@H](O)CS[*:2])[*:1]; Orn = NCCC[C@H](N)C(=O)O
In what follows, each item is paired with its pKi for Vasopressin V1a receptor (Homo sapiens, UniProt P37288).
REPORTED PROPERTY: pKi

{"COMPOUND": "CC[C@H](C)[C@@H]1NC(=O)[C@H](Cc2ccc(O)cc2)NC(=O)[C@@H](O)CSSC[C@@H](C(=O)N2CCC[C@H]2C(=O)N[C@@H](CCCNC(=O)c2ccc3c(c2)C2(OC3=O)c3ccc(O)cc3Oc3cc(O)ccc32)C(=O)NCC(N)=O)NC(=O)[C@H](CC(N)=O)NC(=O)[C@H](CCC(N)=O)NC1=O (YIQNCP[Orn](6FAM)G-NH2; linker N-5 via X1)", "SYSTEM TESTED": "Vasopressin V1a receptor (Homo sapiens, UniProt P37288)", "OBSERVED RESULT": 7.91}
{"COMPOUND": "CC[C@H](C)[C@@H]1NC(=O)[C@H](Cc2ccc(O)cc2)NC(=O)[C@@H](O)CSSC[C@@H](C(=O)N2CCC[C@H]2C(=O)N[C@@H](CCCCNC(=O)c2ccc3c(c2)C2(OC3=O)c3ccc(O)cc3Oc3cc(O)ccc32)C(=O)NCC(N)=O)NC(=O)[C@H](CC(N)=O)NC(=O)[C@H](CCC(N)=O)NC1=O (YIQNCPK(6FAM)G-NH2; linker N-5 via X1)", "SYSTEM TESTED": "Vasopressin V1a receptor (Homo sapiens, UniProt P37288)", "OBSERVED RESULT": 7.86}
{"COMPOUND": "CC[C@H](C)[C@@H]1NC(=O)[C@@H](Cc2ccc(O)cc2)NC(=O)CC2(CCCCC2)SSC[C@@H](C(=O)N2CCC[C@H]2C(=O)N[C@@H](CCCNC(=O)c2ccc3c(c2)C2(OC3=O)c3ccc(O)cc3Oc3cc(O)ccc32)C(=O)O)NC(=O)[C@H](CC(N)=O)NC(=O)[C@H]([C@@H](C)O)NC1=O", "SYSTEM TESTED": "Vasopressin V1a receptor (Homo sapiens, UniProt P37288)", "OBSERVED RESULT": 6.18}
